- Protocol description: chemical genetic growth profiling, strain panel (AID 1159580);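 further: tested at 20 µM; growth read once vehicle control cultures reached saturation at 30 °C; 1 = growth at the plate median or of vehicle wells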
- Particulars: S. cerevisiae deletion strains, growth OD, locus YMR078C, strain ctf18
Out of some 5,500 compounds screened, about 2,000 (36%) were called active. Another 18% or so got no clear call; they are omitted. No stated cut-off is given here; in the data, active means normalized growth mostly below about 0.91 (no sharp cut-off); inconclusive means no clear call, values can overlap the other calls; inactive means mostly above about 0.92. The list shows a part of the results.
Please state which outcome applies, choosing from class 1 for active, class 0 for inactive

compound="CC(=O)Oc1ccc2c(c1)CCC1C2CC[C@@]2(C)C1CC[C@@H]2OC(C)=O (some centres undefined)" classification="class 0"
compound="COC(=O)C[C@H]1C(C)(C)[C@@H](OC(C)=O)[C@@H]2CC3C4CC(=O)O[C@@H](c5ccoc5)[C@]4(C)CCC3[C@@]1(C)C2=O (some centres undefined)" classification="class 0"
compound=O=C1c2ccc(O)c(O)c2C(=O)c2c(O)ccc(O)c21 classification="class 0"

Just curious, what result did O=C1c2ccccc2C(=O)c2c1ccc(O)c2O get here?
class 1

Just curious, what result did CCC(=O)O[C@H]1CCC2C3CCc4cc(O)ccc4C3CC[C@@]21C (some centres undefined) get here?
class 0

Just curious, what result did COc1ccc(Cc2nccc3cc(OC)c(OC)cc23)cc1OC get here?
class 0

----------
- Protocol description: chemical genetic growth profiling, strain panel (AID 1159580);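 further: tested at 20 µM; growth read once vehicle control cultures reached saturation at 30 °C; 1 = growth at the plate median or of vehicle wells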
- Particulars: S. cerevisiae deletion strains, growth OD, locus YJR066W, strain TOR1, stronger effect = lower value
Out of some 5,500 compounds screened, about 2,000 (36%) were called active. Roughly 18% stayed inconclusive and do not appear here. The list shows a part of the results.
Measurement label: normalized growth
A bare number is all that is needed in reply.

compound="CC(=O)OC1CCC23C(=O)OC45CCC(C6=CC(=O)OC6)C4(C)CCC2C5CCC3(O)C1 (centres undefined)" measurement_label="normalized growth" reported_value=0.883

I have this compound here, OC[C@@H](O)C(O[C@@H]1O[C@H](CO)[C@H](O)[C@H](O)[C@H]1O)[C@H](O)[C@@H](O)CO (some centres undefined) , and I need its recorded normalized growth.
0.926

I have this compound here, CCOc1nc2cccc(C(=O)OC(C)OC(=O)OC3CCCCC3)c2n1Cc1ccc(-c2ccccc2-c2nn[nH]n2)cc1 (centres undefined) , and I need its recorded normalized growth.
0.93

I have this compound here, CN(C)CC(=O)OC[C@@H](O)[C@@H](O)[C@H](O)[C@@H](O)C(=O)O , and I need its recorded normalized growth.
0.924

I have this compound here, CN(NC(=S)Nc1cc(Cl)ccc1Cl)c1ccc(C(F)(F)F)cc1[N+](=O)[O-] , and I need its recorded normalized growth.
0.973

I have this compound here, CC(=O)Oc1ccc2c(=O)c(Oc3ccc(Cl)cc3)c(C)oc2c1 , and I need its recorded normalized growth.
0.896

I have this compound here, CC(/C=C/c1ccccc1)=N/OC(=O)c1ccccc1Cl , and I need its recorded normalized growth.
0.963

I have this compound here, FC(F)(F)c1ccc(NC(=S)Nc2ccc(C(F)(F)F)cc2Cl)c(Cl)c1 , and I need its recorded normalized growth.
0.886

I have this compound here, COC(=O)c1ccc(Oc2c(C(F)(F)F)oc3cc(O)ccc3c2=O)cc1 , and I need its recorded normalized growth.
1.01

----------
- Protocol description: chemical genetic growth profiling, strain panel (AID 1159580);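 further: tested at 20 µM; growth read once vehicle control cultures reached saturation at 30 °C; 1 = growth at the plate median or of vehicle wells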
- Particulars: S. cerevisiae deletion strains, growth OD, locus YNL153C, strain GIM3, stronger effect = lower value
About 2,000 (36%) of roughly 5,500 compounds were called active. Inconclusive results (about 18%) are left out. Some of the results follow.
Measurement label: normalized growth
A bare number is all that is needed in reply.

These solved cases illustrate the format of a correct answer.
compound="C[C@]12C=CC(=O)C=C1CCC1C2C(=O)C[C@@]2(C)C1CC[C@]2(O)C(=O)CO (some centres not stated)" reported_value=0.99
compound=COc1cc(Cl)c(Cl)cc1Cl reported_value=0.983
compound="CC(C)(O)CC[C@@H](O)[C@](C)(O)C1CC[C@@]2(O)C3=CC(=O)C4C[C@@H](O)[C@@H](O)C[C@]4(C)C3CC[C@]12C (some centres not stated)" reported_value=1.03
compound="CN1Cc2c(N)cccc2C(c2ccccc2)C1 (configuration not stated)" reported_value=0.969
compound=COc1cc2ccc(=O)oc2c(OC)c1OC reported_value=1.02
compound=CCCc1cc(C(=O)Nc2ccc(N(CC)CC)cc2)nn1-c1ccccc1 reported_value=0.987
compound="CC(=O)O[C@@H]1CC2C(C)(C)C(=O)[C@@H]3O[C@@H]3[C@]2(C)C2CC[C@]3(C)C(=CC(=O)O[C@H]3c3ccoc3)[C@@]21C (some centres not stated)" reported_value=1.02
compound=O=[N+]([O-])/N=C1/NCCN1Cc1ccc(Cl)cc1 reported_value=1

I have this compound here, Cc1oc(-c2ccccc2)cc1C(=O)N1CCN(c2ccc(C(F)(F)F)cn2)CC1 , and I need its recorded normalized growth.
0.978

I have this compound here, COc1cc(O)c(C(C)=O)c(OC)c1 , and I need its recorded normalized growth.
1.02

I have this compound here, N#Cc1ccc2c(c1)N(CCCN1CCC(O)CC1)c1ccccc1S2 , and I need its recorded normalized growth.
1

I have this compound here, COc1ccc2ccc(=O)oc2c1CC=C(C)C , and I need its recorded normalized growth.
0.713

I have this compound here, CC(NC(=S)Nc1ccc(Oc2ccc(Cl)cc2)cc1)c1ccccc1 (configuration not stated) , and I need its recorded normalized growth.
0.985

I have this compound here, O=S(=O)(c1ccc(Cl)c(Cl)c1)N1CCN(c2ccc(C(F)(F)F)cn2)CC1 , and I need its recorded normalized growth.
1.04

I have this compound here, CCOC(=N)c1ccc(F)c(Cl)c1 , and I need its recorded normalized growth.
0.999

I have this compound here, S=C(NCc1ccco1)Nc1ccc(Oc2ccc(Cl)cc2)cc1 , and I need its recorded normalized growth.
0.936

I have this compound here, CC(C)(C)c1cc(C(C)(C)C)n(-c2ccc(N=Cc3cc(Br)cc(Br)c3O)cc2)n1 , and I need its recorded normalized growth.
0.267

I have this compound here, CC(C)CCCC(C)C1CCC2C3CCC4CC(=O)CCC4(C)C3CCC12C (configuration not stated) , and I need its recorded normalized growth.
1.03

I have this compound here, CC(C)(C)c1cc(C(C)(C)C)n(-c2ccc([N+](=O)[O-])cc2)n1 , and I need its recorded normalized growth.
1

I have this compound here, CSc1nc(N)c2ncn([C@@H]3O[C@H](COP(=O)(O)OP(=O)(O)O)[C@H](O)C3O)c2n1 (some centres not stated) , and I need its recorded normalized growth.
1.03

I have this compound here, CCOC(=O)c1csc(N/N=C2/CCCc3ccccc32)n1 , and I need its recorded normalized growth.
0.915

I have this compound here, CCC(=O)Oc1ccc(NC(=S)NCCCO)cc1 , and I need its recorded normalized growth.
1.01
